These entries and their values trace back to PubChem BioAssay AID1996.

Conditions: buffer; pH 7.4; 200.0 µM
quantity: solubility kinetic

{"compound": "Cc1cccc(N2CCN(C(=O)NC3CCCCC3)CC2C)c1 (stereo not given)", "solubility kinetic": "> 47.3 µg/mL"}
{"compound": "COc1ccccc1OCCn1ccnc1", "solubility kinetic": "> 32.7 µg/mL"}
{"compound": "COc1ccc(NC(=O)CN2C(=O)NC(C)(c3ccc4c(c3)OCCO4)C2=O)cc1S(N)(=O)=O (stereo not given)", "solubility kinetic": "> 73.6 µg/mL"}
{"compound": "O=[N+]([O-])c1ccccc1S(=O)(=O)c1ccccc1", "solubility kinetic": "> 39.5 µg/mL"}

Find the recorded solubility kinetic belonging to Cc1cc(C)cc(C(=O)NCCN2CCOCC2)c1 and report it.
> 39.4 µg/mL
